Data origin, for the record: patent US20250115591A1

Target: NLRP3 (Homo sapiens (Human), UniProt Q96P20)
Sequence (Q96P20 whole entry): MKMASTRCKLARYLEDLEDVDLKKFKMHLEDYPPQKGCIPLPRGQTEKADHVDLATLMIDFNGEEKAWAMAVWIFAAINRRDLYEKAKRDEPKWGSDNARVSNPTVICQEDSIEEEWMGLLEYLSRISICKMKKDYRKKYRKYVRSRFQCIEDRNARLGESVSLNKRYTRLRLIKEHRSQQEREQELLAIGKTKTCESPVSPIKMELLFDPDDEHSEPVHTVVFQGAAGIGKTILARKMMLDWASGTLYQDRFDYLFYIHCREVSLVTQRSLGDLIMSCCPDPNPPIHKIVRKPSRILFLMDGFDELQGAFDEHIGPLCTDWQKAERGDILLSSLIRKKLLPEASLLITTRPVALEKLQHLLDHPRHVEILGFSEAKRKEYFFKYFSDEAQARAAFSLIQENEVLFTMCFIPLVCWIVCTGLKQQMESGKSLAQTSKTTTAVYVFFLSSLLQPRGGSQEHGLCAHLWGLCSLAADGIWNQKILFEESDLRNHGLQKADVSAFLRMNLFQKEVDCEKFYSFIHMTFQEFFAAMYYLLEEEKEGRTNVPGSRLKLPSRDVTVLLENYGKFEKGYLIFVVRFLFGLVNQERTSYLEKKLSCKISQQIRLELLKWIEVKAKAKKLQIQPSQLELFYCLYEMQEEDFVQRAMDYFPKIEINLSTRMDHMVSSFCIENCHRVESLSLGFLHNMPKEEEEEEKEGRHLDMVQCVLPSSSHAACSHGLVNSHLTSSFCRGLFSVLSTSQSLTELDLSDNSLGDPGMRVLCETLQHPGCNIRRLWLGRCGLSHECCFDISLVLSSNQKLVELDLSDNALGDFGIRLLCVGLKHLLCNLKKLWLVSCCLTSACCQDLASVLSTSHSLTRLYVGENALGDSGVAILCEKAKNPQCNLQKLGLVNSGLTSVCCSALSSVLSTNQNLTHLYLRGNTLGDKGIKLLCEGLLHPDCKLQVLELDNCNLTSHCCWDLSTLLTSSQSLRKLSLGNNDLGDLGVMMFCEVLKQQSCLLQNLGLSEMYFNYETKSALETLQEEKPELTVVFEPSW
Assay: THP-1 cells pyroptosis assay (LPS + nigericin, resazurin read-out)
Assay type: cell-based
Conditions: 1 μg/ml LPS, 5 μM nigericin
Counter-ions that a name gives are not always drawn.
Property name: IC50

[[record]]
compound = "CCN1CCC(N2CCC(S(=O)(=O)NC(=O)Nc3c4c(cc5c3CCC5)CCC4)C2)CC1 (stereo not shown) [Example 44, potassium salt]"
value_reported = "1000 to 10000 nM"


// query Given "CC(C)c1cc(F)cc(-c2ccnc(C#N)c2)c1NC(=O)NS(=O)(=O)C1CN(C2CCC2)C1" , respond with its IC50.
// result 1000 to 10000 nM

// query Given CC(CO)N1CC(S(=O)(=O)NC(=O)Nc2c3c(cc4c2CCC4)CCC3)C1 (stereo not shown) [Example 130, potassium salt] , respond with its IC50.
// result < 1000 nM

// query Given O=C(Nc1c2c(cc3c1CCC3)CCC2)NS(=O)(=O)C1CN(C2CCOCC2)C1 [Example 75, potassium salt] , respond with its IC50.
// result < 1000 nM

// query Given CC(C)n1cc(S(=O)(=O)NC(=O)Nc2c3c(cc4c2CCC4)CCC3)ccc1=O [Example 185, sodium salt] , respond with its IC50.
// result < 1000 nM

// query Given CN1CC(N2CC(S(=O)(=O)NC(=O)Nc3c4c(cc5c3CCC5)CCC4)C2)C1 [Example 110, potassium salt] , respond with its IC50.
// result 1000 to 10000 nM

// query Given CC(C)N1CCC(S(=O)(=O)NC(=O)Nc2c3c(cc4c2CCC4)CCC3)CC1 [Example 47, potassium salt] , respond with its IC50.
// result 1000 to 10000 nM
